# TARGET DESC: UniProt:P21980
# Sequence (P21980 whole entry): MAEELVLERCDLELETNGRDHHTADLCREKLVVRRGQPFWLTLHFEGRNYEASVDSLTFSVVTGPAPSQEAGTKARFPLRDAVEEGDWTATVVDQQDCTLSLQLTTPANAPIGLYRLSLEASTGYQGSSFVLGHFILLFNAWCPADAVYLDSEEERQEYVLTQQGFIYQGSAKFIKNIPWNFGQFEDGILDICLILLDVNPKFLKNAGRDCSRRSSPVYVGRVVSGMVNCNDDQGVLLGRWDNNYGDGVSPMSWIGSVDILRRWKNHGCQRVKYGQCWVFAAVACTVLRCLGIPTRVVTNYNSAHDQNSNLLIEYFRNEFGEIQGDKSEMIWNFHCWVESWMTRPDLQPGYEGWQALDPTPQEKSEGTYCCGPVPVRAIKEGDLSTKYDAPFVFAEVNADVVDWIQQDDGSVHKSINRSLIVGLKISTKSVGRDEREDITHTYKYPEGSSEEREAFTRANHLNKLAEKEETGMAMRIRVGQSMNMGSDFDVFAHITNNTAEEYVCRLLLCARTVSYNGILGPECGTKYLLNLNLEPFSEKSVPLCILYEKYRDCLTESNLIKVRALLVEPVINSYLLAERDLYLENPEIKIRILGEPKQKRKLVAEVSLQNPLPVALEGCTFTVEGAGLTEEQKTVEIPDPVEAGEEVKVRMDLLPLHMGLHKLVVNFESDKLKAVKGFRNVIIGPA
# ASSAY SUMMARY: Inhibition of human transglutaminase 2 using N-Cbz-Glu(gamma-p-nitrophenylester)Gly (AL5) substrate measured over 10 mins by UV-visible spectrophotometry
# CONDITION DETAILS: read-out: IC50

>  <COMPOUND SMILES>
O=C(c1cn(Cc2ccc(OC(F)(F)F)cc2)nn1)c1cn(Cc2ccc([N+](=O)[O-])cc2)nn1

>  <IC50>
> 100 µM

$$$$
>  <COMPOUND SMILES>
N#Cc1ccc(Cn2cc(C(=O)c3cn(Cc4ccc([N+](=O)[O-])cc4)nn3)nn2)cc1

>  <IC50>
> 100 µM

$$$$
>  <COMPOUND SMILES>
O=C(c1cn(Cc2ccc([N+](=O)[O-])cc2)nn1)c1cn(Cc2cccc([N+](=O)[O-])c2)nn1

>  <IC50>
> 100 µM

$$$$
